Molecular target: CSNK1A1 (human)
Assay: KINOMEscan competition binding
Conditions: compound 10.0 µM
So I've got a bunch of compounds here, and I need their kinase still bound, per cent of control values.
Your answer is read as %, so omit the unit and give the number.

# input Which kinase still bound, per cent of control is reported for this compound? "N#CCNC(=O)c1ccc(-c2ccnc(Nc3ccc(N4CCOCC4)cc3)n2)cc1"
# output 81

# input Next entry: "O=C1NC(=O)/C(=C/c2ccc3nccc(-c4ccncc4)c3c2)S1"
# output 24

# input Next entry: "O=c1cc(N2CCOCC2)oc2c(-c3cccc4c3sc3ccccc34)cccc12"
# output 78

# input Next entry: "COc1ccc(N(C(=O)Oc2c(C)cccc2C)c2ccnc(Nc3ccc(N4CCN(C)CC4)cc3)n2)c(OC)c1"
# output 71

# input Next entry: "COc1cc2ncn(-c3cc(OCc4ccccc4C(F)(F)F)c(C(N)=O)s3)c2cc1OC"
# output 60

# input Next entry: "COc1cc(C(=O)N2CCC(N3CCN(C)CC3)CC2)ccc1Nc1ncc2c(n1)N(C)c1ccccc1C(=O)N2C"
# output 100

# input Next entry: "CCN1CCN(C(=O)Cc2ccc(Nc3ncc(F)c(Nc4ccc(C(=O)Nc5ccccc5Cl)cc4)n3)cc2)CC1"
# output 96

# input Next entry: "C[C@@H](Oc1cc(-c2cnn(C3CCNCC3)c2)cnc1N)c1c(Cl)ccc(F)c1Cl"
# output 61

# input Next entry: "COCC(=O)NC/C=C/c1ccc2ncnc(Nc3ccc(Oc4ccc(C)nc4)c(C)c3)c2c1"
# output 100

* * *

Biological target: PTK2B (human)
Assay: KINOMEscan competition binding
Conditions: compound 10.0 µM
metric-name: kinase still bound, per cent of control (%)
Your answer is read as %, so omit the unit and give the number.

# input Which kinase still bound, per cent of control is reported for this molecule? "O=C(Nc1cccc(Nc2ncc(Br)c(NCCc3cnc[nH]3)n2)c1)N1CCCC1"
# output 8.2

# input Next entry: "CN(C)C/C=C/C(=O)Nc1ccc(C(=O)Nc2cccc(Nc3nccc(-c4cccnc4)n3)c2)cc1"
# output 100

# input Next entry: "COc1cc(N2CCN(C)CC2)ccc1Nc1ncc2c(n1)N(C)c1ccccc1C(=O)N2C"
# output 100

# input Next entry: "CS(=O)(=O)N1CCN(Cc2cc3nc(-c4cccc5[nH]ncc45)nc(N4CCOCC4)c3s2)CC1"
# output 100

# input Next entry: "CCN(CC)CCCCNc1ncc2c(n1)N(C)C(=O)N(c1c(Cl)c(OC)cc(OC)c1Cl)C2"
# output 100

# input Next entry: "COc1cc2ncnc(-n3nc(-c4ccccn4)nc3N)c2cc1OC"
# output 75

# input Next entry: "COCC(=O)NC/C=C/c1ccc2ncnc(Nc3ccc(Oc4ccc(C)nc4)c(C)c3)c2c1"
# output 80

# input Next entry: "O=c1cc(N2CCOCC2)oc2c(-c3cccc4c3sc3ccccc34)cccc12"
# output 94

# input Next entry: "C=CC(=O)Nc1ccc(CN(C(=O)Nc2c(Cl)c(OC)cc(OC)c2Cl)c2cc(Nc3ccc(N4CCN(C)CC4)cc3)ncn2)cc1"
# output 100

# input Next entry: "COc1ccc(N(C(=O)Oc2c(C)cccc2C)c2ccnc(Nc3ccc(N4CCN(C)CC4)cc3)n2)c(OC)c1"
# output 9

# input Next entry: "O=C1NC(=O)/C(=C/c2ccc3nccc(-c4ccncc4)c3c2)S1"
# output 86

# input Next entry: "COc1cc2ncn(-c3cc(OCc4ccccc4C(F)(F)F)c(C(N)=O)s3)c2cc1OC"
# output 72

# input Next entry: "COc1cc(C(=O)N2CCC(N3CCN(C)CC3)CC2)ccc1Nc1ncc2c(n1)N(C)c1ccccc1C(=O)N2C"
# output 78

# input Next entry: "C=CC(=O)Nc1cc(-n2c(=O)ccc3cnc4ccc(-c5cn[nH]c5)cc4c32)ccc1C"
# output 96

# input Next entry: "CNC(=O)c1ccc(Nc2cc(Nc3ccccc3S(=O)(=O)C(C)C)c3cc[nH]c3n2)nc1"
# output 0.1
